# Test system: KG-1
# test.protocol: Cellular Proliferation Assay (Cell Counting Kit-8), KG-1
# Type: cell-based
# experimental.context: Homo sapiens; KG-1 cells, 72 hours; read-out: KG1 IC50
recorded.metric: pIC50
For clarity, pIC50 is expressed as the negative log10 of concentration in mol/L.

Ask: Suppose we examine the molecule `CNC(=O)c1cc(COc2cnc(Nc3ccc(S(C)(=O)=O)cc3)nc2)c(F)c(OC)c1` ; what pIC50 value has been reported?
Reply: 7.46

Ask: What about this molecule? `CNC(=O)c1cc(COc2cnc(Nc3ccc(-n4nccn4)cc3)nc2)c(Cl)c(OC)c1`
Reply: 7.24

Ask: What about this molecule? `CNC(=O)c1cc(OC)c(Cl)c(COc2cnc(Nc3ccc(N4C[C@@H](C)N[C@@H](C)C4)c(C)c3)nc2)c1F`
Reply: 8.10

Ask: What about this molecule? `CNC(=O)c1cc(COc2cnc(Nc3ccnc(N4C[C@@H](C)N[C@@H](C)C4)c3)nc2)c(F)c(OC)c1`
Reply: 6.66

Ask: What about this molecule? `CNC(=O)c1cc(COc2cnc(Nc3ccc(C(C)=O)cc3)nc2)c(F)c(OC)c1`
Reply: 7.59

Ask: What about this molecule? `CNC(=O)c1cc(COc2cnc(Nc3cnn(C[C@@H]4COC(C)(C)O4)c3)nc2)c(F)c(OC)c1`
Reply: 8.22

Ask: What about this molecule? `CNC(=O)c1cc(COc2cnc(Nc3ccc(N4C[C@@H](C)N[C@@H](C)C4)c(OC)c3)nc2)c(F)c(OC)c1`
Reply: 7.34
